test system: E. coli ATCC 25922; assay: microbe, parasite or virus in culture; assay type: cell-based; settings: Escherichia coli, ATCC25922, read-out: MIC E. coli 25922
readout_name: MIC

input: Note MIC for the compound shown: O=C(O)c1cccc2c1OB(O)[C@@H](NC(=O)C(NC(=O)C(F)(F)F)c1ccc(P(=O)(O)O)cc1)C2 (stereo partly shown) [Example 172]
output: > 128 µg/mL

input: Give MIC for CS(=O)(=O)N1CCN(C(=O)NC(C(=O)N[C@H]2Cc3cccc(C(=O)O)c3OB2O)c2ccc(P(=O)(O)O)c(Cl)c2)C1=O (stereo partly shown) [Example 11]
output: 32 to 64 µg/mL

input: Answer with the recorded MIC for the compound listed here: O=C(O)c1cccc2c1OB(O)[C@@H](NC(=O)C(NC(=O)c1ccc[nH]c1=O)c1ccc(P(=O)(O)O)cc1)C2 (stereo partly shown) [Example 174]
output: > 128 µg/mL

input: Quickly give me recorded MIC for CS(=O)(=O)N1CCN(C(=O)NC(C(=O)N[C@H]2Cc3cccc(C(=O)O)c3OB2O)c2ccc(P(=O)(O)O)c(F)c2O)C1=O (stereo partly shown) [Example 48]
output: > 128 µg/mL

input: Query MIC for Nc1ncc(C(=O)N[C@@H](C(=O)N[C@H]2Cc3cccc(C(=O)O)c3OB2O)c2ccc(P(=O)(O)O)cc2)s1 (racemic) [Example 50]
output: > 128 µg/mL

input: Return MIC for the following compound: O=C(O)c1cccc2c1OB(O)[C@@H](NC(=O)[C@H](NC(=O)c1cnc3n(c1=O)CCS3)c1ccc(P(=O)(O)O)cc1)C2 (single isomer, unassigned) [Example 197]
output: > 128 µg/mL

input: Consider the compound O=C(O)c1cccc2c1OB(O)[C@@H](NC(=O)[C@@H](NC(=O)c1ccn[nH]c1=O)c1ccc(P(=O)(O)O)cc1)C2 (single isomer, unassigned) [Example 177] . State its measured MIC.
output: > 128 µg/mL

input: Answer with the recorded MIC for the compound listed here: O=C(NC(C(=O)N[C@H]1Cc2cccc(C(=O)O)c2OB1O)c1ccc(P(=O)(O)O)cc1)c1ccccn1 (stereo partly shown) [Example 32]
output: > 128 µg/mL

input: Respond only with MIC recorded for O=C(O)c1cccc2c1OB(O)[C@@H](NC(=O)[C@H](NC(=O)[C@@H]1CCCN1)c1ccc(P(=O)(O)O)cc1)C2 [Example 173]
output: > 128 µg/mL

input: Return value of MIC for input CN1CCCN(C(=O)NC(C(=O)N[C@H]2Cc3cccc(C(=O)O)c3OB2O)c2ccc(P(=O)(O)O)cc2)C1=O (stereo partly shown) [Example 38] , no commentary.
output: > 128 µg/mL

input: Read off the recorded MIC for CS(=O)(=O)N1CCN(C(=O)NC(C(=O)N[C@H]2Cc3cccc(C(=O)O)c3OB2O)c2ccc(P(=O)(O)O)c(F)c2)C1=O (stereo partly shown) [Example 12]
output: 32 to 64 µg/mL

input: Give reported MIC value for CC(C)C(=O)NC(C(=O)N[C@H]1Cc2cccc(C(=O)O)c2OB1O)c1ccc(P(=O)(O)O)cc1 (stereo partly shown) [Example 28]
output: > 128 µg/mL

input: Respond only with MIC recorded for O=C(O)c1c(F)ccc2c1OB(O)[C@@H](NC(=O)C(NC(=O)N1CCN(Cc3ccc(O)c(O)c3Cl)C(=O)C1=O)c1ccc(P(=O)(O)O)cc1)C2 (stereo partly shown) [Example 8]
output: 2 to 4 µg/mL

Hey, just so you know, these numbers are from patent US20240270762A1.
